# measured target: Human FAAH (Homo sapiens, UniProt O00519)
# Construct: The full length FAAH was subcloned into the mammalian expression vector, peDEF.neo
# Sequence (O00519 whole entry): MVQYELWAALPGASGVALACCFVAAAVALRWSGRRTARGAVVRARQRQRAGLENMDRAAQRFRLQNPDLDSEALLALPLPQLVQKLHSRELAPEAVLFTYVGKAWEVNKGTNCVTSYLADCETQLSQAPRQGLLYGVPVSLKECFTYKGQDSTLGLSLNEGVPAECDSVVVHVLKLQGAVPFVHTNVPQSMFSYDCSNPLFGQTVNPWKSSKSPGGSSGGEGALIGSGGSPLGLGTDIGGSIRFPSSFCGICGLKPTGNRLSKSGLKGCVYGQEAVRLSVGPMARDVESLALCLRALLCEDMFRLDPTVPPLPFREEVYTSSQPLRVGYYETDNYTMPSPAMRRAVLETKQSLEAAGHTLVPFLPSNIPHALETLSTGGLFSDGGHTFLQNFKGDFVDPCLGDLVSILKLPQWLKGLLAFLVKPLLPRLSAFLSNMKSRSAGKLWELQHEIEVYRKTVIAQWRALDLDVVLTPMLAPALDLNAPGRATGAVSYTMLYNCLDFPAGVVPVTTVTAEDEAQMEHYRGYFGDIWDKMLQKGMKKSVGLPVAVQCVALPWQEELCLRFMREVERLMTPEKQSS
# assay details: Human FAAH lysate assay (CHO cell lysate expressing FAAH, AAMCA or 3H-anandamide hydrolysis)
# Format: biochemical
# assay context: B series; read-out: Human FAAH lysate assay: IC50
Task for the reader: assign each of the following compounds its reported pIC50.
One number for each entry, as −log10 of the molar value.

Worked examples follow.
compound	measured target	quantity	numeric result
Cn1cnc(-c2ccc([C@H]3C[C@@H]3c3nn(C)c(=O)o3)cc2)c1Sc1ccc(Cl)cn1	Human FAAH (Homo sapiens, UniProt O00519)	pIC50	6.77
Cn1cnc(-c2ccc([C@H]3C[C@@H]3COCCF)cc2)c1Sc1ccc(Cl)cn1 [Example 25B]	Human FAAH (Homo sapiens, UniProt O00519)	pIC50	7.16
Cn1cnc(-c2ccc([C@H]3C[C@@H]3c3n[nH]c(=S)o3)cc2)c1Sc1ccc(Cl)cn1 [Example 31B]	Human FAAH (Homo sapiens, UniProt O00519)	pIC50	6.17
Cn1cnc(-c2ccc([C@H]3C[C@@H]3c3n[nH]c(=O)o3)cc2)c1Sc1ccc(Cl)cn1 [Example 17B]	Human FAAH (Homo sapiens, UniProt O00519)	pIC50	8.35

For each of the items listed, what is its pIC50?
1. COC(=O)[C@H]1C[C@@H]1c1ccc(-c2ncn(C)c2Sc2ccc(Cl)cn2)cc1 [Example 21B]
2. CN(C)C(=O)[C@H]1C[C@@H]1c1ccc(-c2ncn(C)c2Sc2ccc(Cl)cn2)cc1

## Output
1. 9.70
2. 9.00

###

# measured target: Human FAAH (Homo sapiens, UniProt O00519)
# Construct: The full length FAAH was subcloned into the mammalian expression vector, peDEF.neo
# assay details: Human FAAH lysate assay (CHO cell lysate expressing FAAH, AAMCA or 3H-anandamide hydrolysis)
# Type: biochemical
# assay context: tables of the B series; read-out: hFAAH lysate IC50
quantity: pIC50
Give bare numbers, as −log10 of the molar value.

compound	pIC50
Cn1cnc(-c2ccc([C@H]3C[C@@H]3C(=O)NC(C)(C)C)cc2)c1Sc1ccc(Cl)cn1	6.71
Cn1cnc(-c2ccc([C@H]3C[C@@H]3C(N)=O)cc2)c1Sc1ccc(Cl)cn1	8.48
NC(=O)[C@H]1C[C@@H]1c1ccc(-c2ncn(CCF)c2Sc2ccc(Cl)cn2)cc1 [Example 16B]	7.90
CNC(=O)C1CC1c1ccc(-c2ncn(C)c2Sc2ccc(Cl)cn2)cc1 (centres unmarked)	8.85

Turning to the following compound.
Item: Cn1cnc(-c2ccc(C3CC3C(N)=O)cc2)c1Sc1ccc(Cl)cn1 (centres unmarked) | pIC50: 8.59

###

# measured target: Human FAAH (Homo sapiens, UniProt O00519)
# Construct: The full length FAAH was subcloned into the mammalian expression vector, peDEF.neo
# assay details: Human FAAH lysate assay (CHO cell lysate expressing FAAH, AAMCA or 3H-anandamide hydrolysis)
# Format: biochemical
# assay context: tables of the B series; read-out: hFAAH lysate IC50
pIC50: −log10 of the molar value.
Output criterion met for pIC50 not less than 8; output criterion not met otherwise.

Worked examples, 6 compounds total:
compound	class
Cn1cnc(-c2ccc([C@H]3C[C@@H]3c3n[nH]c(=O)o3)cc2)c1Sc1ccc(Cl)cc1F [Example 42B]	criterion met
Cn1cnc(-c2ccc([C@H]3C[C@@H]3c3n[nH]c(=O)o3)cc2)c1Sc1ccc(Cl)cc1 [Example 39B]	criterion not met
CC(C)c1ccc(Sc2c(-c3ccc([C@H]4C[C@@H]4c4n[nH]c(=O)o4)cc3)ncn2C)cc1 [Example 43B]	criterion not met
CNC(=O)[C@H]1C[C@@H]1c1ccc(-c2ncn(CCF)c2Sc2ccc(Cl)cn2)cc1 [Example 15B]	criterion met
Cn1cnc(-c2ccc([C@H]3C[C@@H]3c3n[nH]c(=O)o3)cc2)c1Sc1ccc(F)cc1F [Example 41B]	criterion met
COc1cnc(Sc2c(-c3ccc([C@H]4C[C@@H]4c4n[nH]c(=O)o4)cc3)ncn2C)nc1 [Example 40B]	criterion not met

Read the next record carefully.
## Input Record CNC(=O)[C@H]1C[C@@H]1c1ccc(-c2ncn(C)c2Sc2ccc(Cl)cn2)cc1 [Example 6B] ; criterion: pIC50 no lower than 8. Met?
## Output criterion met
